- Tested on: Human alphaherpesvirus 3
- measurement.notes: Antiviral activity against wild type Varicella zoster virus infected in HEL cells assessed as reduction in viral plaque formation incubated for 2 hrs
- Format: functional, organism-based
- condition.description: Human alphaherpesvirus 3, HEL
observable: pEC50
Recall that pEC50 is obtained by taking minus log10 of the concentration measured in molar.

## Input What measured pEC50 is associated with O=c1nc2c(cn1[C@H]1C[C@H](O)[C@@H](CO)O1)Oc1ccccc1N2 on Human alphaherpesvirus 3?
## Output 7.22

----------
Reported CC50 values for a set of molecules
- System: HEL
- measurement.notes: Cytotoxicity against human HEL cells assessed as reduction in cell viability measured after 3 days by beckman coulter counting method
- Type: cell-based
- condition.description: 72 h, time 3 day

Example entries and their recorded answers appear below.
smiles.string: CN1c2ccccc2Oc2cn(COCCO)c(=O)nc21
CC50: > 100 µM
//
smiles.string: CCCCCCCCOc1ccc2c(c1)Nc1nc(=O)n([C@H]3C[C@H](O)[C@@H](CO)O3)cc1O2
CC50: > 100 µM
//
smiles.string: CCCCCCCCCOc1ccc2c(c1)Nc1nc(=O)n([C@H]3C[C@H](O)[C@@H](CO)O3)cc1O2
CC50: > 100 µM
//
smiles.string: O=c1[nH]c(=O)n([C@H]2C[C@H](O)[C@@H](CO)O2)cc1/C=C/Br
CC50: > 300 µM
//
smiles.string: COc1ccc(C(OCCOCn2cc3c(nc2=O)N(C)c2ccccc2O3)(c2ccccc2)c2ccc(OC)cc2)cc1
CC50: > 100 µM

## Input Look up CC50: Nc1nc2c(ncn2COCCO)c(=O)[nH]1
## Output > 300 µM

## Input Look up CC50: O=c1nc2c(cn1COCCO)Oc1ccccc1N2
## Output > 100 µM

## Input Look up CC50: CCCCCCCCCOc1ccc2c(c1)N(C)c1nc(=O)n([C@H]3C[C@H](O)[C@@H](CO)O3)cc1O2
## Output > 100 µM

----------
Reported selectivity ratio values for a set of compounds
- measurement.notes: Selectivity index, ratio of CC50 for human HEL cells to EC50 for Antiviral activity against Human cytomegalovirus AD169
- Assay type: toxicity
- condition.description: read-out: Ratio CC50/EC50

smiles.string: COc1ccc(C(OCCOCn2cc3c(nc2=O)N(C)c2ccccc2O3)(c2ccccc2)c2ccc(OC)cc2)cc1
selectivity ratio: > 2

Now for the compound whose selectivity ratio we want.
## Input Look up selectivity ratio: CCCCCCCCOc1ccc2c(c1)Nc1nc(=O)n([C@H]3C[C@H](O)[C@@H](CO)O3)cc1O2
## Output > 2

----------
- measurement.notes: Selectivity index, ratio of CC50 for pig PEK cells to EC50 for Antiviral activity against Powassan virus infected in pig PEK cells
- Type: toxicity, cell-based
- condition.description: read-out: Ratio CC50/EC50
observable: selectivity ratio

Example entries and their recorded answers appear below.
smiles.string: COc1ccc(C(OCCOCn2cc3c(nc2=O)Nc2ccccc2O3)(c2ccccc2)c2ccc(OC)cc2)cc1
observable: selectivity ratio
test.result: > 5
//
smiles.string: CCCCCCCCOc1ccc2c(c1)Nc1nc(=O)n([C@H]3C[C@H](O)[C@@H](CO)O3)cc1O2
observable: selectivity ratio
test.result: > 66
//
smiles.string: CCCCCCCCCCOc1ccc2c(c1)Nc1nc(=O)n([C@H]3C[C@H](O)[C@@H](CO)O3)cc1O2
observable: selectivity ratio
test.result: > 22
//
smiles.string: COc1ccc(C(OCCOCn2cc3c(nc2=O)N(C)c2ccccc2O3)(c2ccccc2)c2ccc(OC)cc2)cc1
observable: selectivity ratio
test.result: > 12
//
smiles.string: CCCCCCCCCOc1ccc2c(c1)N(C)c1nc(=O)n([C@H]3C[C@H](O)[C@@H](CO)O3)cc1O2
observable: selectivity ratio
test.result: > 42
//
smiles.string: CCCCCCCCCOc1ccc2c(c1)Nc1nc(=O)n([C@H]3C[C@H](O)[C@@H](CO)O3)cc1O2
observable: selectivity ratio
test.result: > 13
//
smiles.string: CN1c2ccccc2Oc2cn(COCCO)c(=O)nc21
observable: selectivity ratio
test.result: > 7

Now for the compound whose selectivity ratio we want.
## Input Look up selectivity ratio: CCCCCCCCOc1ccc2c(c1)N(C)c1nc(=O)n([C@H]3C[C@H](O)[C@@H](CO)O3)cc1O2
## Output > 7
